Source: patent US9815851B2

# test_target: RORγ (UniProt P51449)
# experiment_notes: RORγ Gal4 Reporter Gene Assay in 293T cells (firefly and renilla luciferase)
# Format: cell-based, human
# particulars: third value of the cell; Gal4 reporter gene assay in 293T cells, renilla normalised luciferase
We use 7 as the dividing line for pIC50 (REN): on or above the line is rule met, below is rule not met.

compound	category
Cc1c(S(=O)(=O)NC(C)(C)C)ccc(-c2cc(C(=O)NCCC(C)(C)C(=O)O)c(C)n2CC2CCCCC2)c1OC(F)F [17/284]	rule met

IN: Does the compound Cc1c(C(=O)NCC(C)(C)C(N)=O)cc(-c2ccc(S(=O)(=O)NC(C)(C)C)c(C(F)(F)F)c2)n1CC1CCCCC1 [17/202] have recorded pIC50 (REN) that is 7 or more?
OUT: rule met

IN: Does the compound Cc1c(C(=O)NC2CCS(=O)(=O)CC2)cc(-c2ccc(S(=O)(=O)NC(C)(C)C)c3ccccc23)n1CC1CCCCC1 [17/263] have recorded pIC50 (REN) that is 7 or more?
OUT: rule met

IN: Does the compound Cc1c(C(=O)N[C@H]2C[C@H](C(=O)O)C2)cc(-c2cc(C(C)(C)C)nc(C3(C)CC3)n2)n1CC1CCCCC1 [17/312] have recorded pIC50 (REN) that is 7 or more?
OUT: rule met

IN: Does the compound CC(C)(C)NS(=O)(=O)c1ccc(-c2cc(C(=O)NCCC(C)(C)C(=O)O)c(C(N)=O)n2CC2CCCCC2)cc1C(F)(F)F [17/169] have recorded pIC50 (REN) that is 7 or more?
OUT: rule not met

IN: Does the compound Cc1c(C(=O)NCC(N)=O)cc(-c2cc(C(C)(C)C)cc(C(C)(C)C)c2)n1CC1CCCCC1 [1/5] have recorded pIC50 (REN) that is 7 or more?
OUT: rule not met

IN: Does the compound Cc1c(C(=O)NCC2(C(N)=O)CCOCC2)cc(-c2cc(C(C)(C)C)c3c(c2)C2(CCO3)CC2)n1CC1CCCCC1 [17/41] have recorded pIC50 (REN) that is 7 or more?
OUT: rule met

IN: Does the compound Cc1c(C(=O)N2CC3(CCOCC3)C2)cc(-c2ccc(S(=O)(=O)NC(C)(C)C)c3ccccc23)n1CC1CCCCC1 [17/266] have recorded pIC50 (REN) that is 7 or more?
OUT: rule met

IN: Does the compound Cc1c(C(=O)NC2COC2)cc(-c2cc(C(C)(C)C)cc(C(C)(C)C)c2)n1CC1CCCCCC1 [1/115] have recorded pIC50 (REN) that is 7 or more?
OUT: rule met

* * *

# test_target: RORγ ligand binding domain (LBD) (Homo sapiens, UniProt P51449)
# Construct: made in house; host or cells: E. coli BL-21 (BL3), vector pDEST15
# experiment_notes: TR-FRET Activity Assay (ligand sensing, RORγ-LBD / coactivator peptide interaction, LANCE)
# Assay type: biochemical
Listed next: entries and their corresponding IC50.
Number in nM, nothing else.

smiles_input	recorded_number
Cc1n[nH]cc1-c1ccc(-c2cc(C(=O)NC3CCOCC3)c(C)n2CC2CCCCC2)cc1C(C)(C)C	251
Cc1c(C(=O)NCCCCCO)cc(-c2cc(C(C)(C)C)cc(C3(C)CC3)c2)n1CC1CCCCC1	158

IN: // map Cc1c(C(=O)NC2CCOCC2)cc(-c2cc(C(C)(C)C)cc(C3(C)CC3)c2)n1CC1CCCCC1 to recorded IC50 (system: RORγ ligand binding domain (LBD) (Homo sapiens, UniProt P51449))
OUT: 158

IN: // map Cc1c(C(=O)NC2COC2)cc(-c2cc(C(=O)NC(C)(C)C)cc(C(C)(C)C)c2)n1CC1CCCCC1 to recorded IC50 (system: RORγ ligand binding domain (LBD) (Homo sapiens, UniProt P51449))
OUT: 794

* * *

# test_target: UniProtKB P51449
# experiment_notes: RORγ Gal4 Reporter Gene Assay in 293T cells (firefly and renilla luciferase)
# Assay type: cell-based, human
# particulars: third value of the cell; Gal4 reporter gene assay in 293T cells, renilla normalised luciferase
readout_name: pIC50 (REN)

Examples with their reported pIC50 (REN) follow.
smiles_input	test_target	result
Cc1c(C(=O)NCC2(C)COC2)cc(-c2cc(C(C)(C)C)c3c(c2)C2(CCO3)CC2)n1CC1CCCCC1	UniProtKB P51449	7.2
Cc1c(C(=O)NC2CCOCC2)cc(-c2ccc(S(=O)(=O)NC(C)(C)C)c(C(F)(F)F)c2F)n1CC1CCCCC1	UniProtKB P51449	7.7
Cc1c(C(=O)NCc2nnn[nH]2)cc(-c2cc(C(C)(C)C)cc(C3(C)CC3)c2)n1CC1CCCCC1	UniProtKB P51449	6.8
Cc1c(C(=O)NCC2(O)COC2)cc(-c2cc(C(C)(C)C)c3c(c2)C2(CCO3)CC2)n1CC1CCCCC1	UniProtKB P51449	6.9
Cc1c(C(=O)N[C@H]2C[C@H](C(=O)O)C2)cc(-c2cc(C(C)(C)O)cc3ccccc23)n1CC1CCCCC1	UniProtKB P51449	< 4.7

IN: Return reported pIC50 (REN); argument: Cc1c(C(=O)NCC(C)(C)O)cc(-c2cc(OC(F)(F)F)cc(C(=O)NC(C)(C)C)c2)n1CC1CCCCC1
OUT: 6.8

IN: Return reported pIC50 (REN); argument: Cc1c(C(=O)NCC(C)(C)O)cc(-c2cc(C(=O)NC(C)(C)C)nc(C3(C)CC3)n2)n1CC1CCCCC1
OUT: < 4.7

IN: Return reported pIC50 (REN); argument: Cc1c(C(=O)NCCS(C)(=O)=O)cc(-c2cc(C(C)(C)C)cc(C(C)(C)C)c2)n1CC1CCCCC1
OUT: 6.7

IN: Return reported pIC50 (REN); argument: Cc1c(C(=O)N[C@H]2C[C@@H](C(=O)O)C2)cc(-c2cc(C(C)(C)C)c3c(c2)C2(CCO3)CC2)n1CC1CCCCC1
OUT: 6.4

IN: Return reported pIC50 (REN); argument: Cc1c(C(=O)N[C@H]2C[C@H](C(=O)O)C2)cc(-c2cc(C(C)(C)O)cc(C(F)(F)F)c2)n1CC1CCCCC1
OUT: 6.0

* * *

Listed next: entries and their corresponding IC50.
# test_target: RORγ ligand binding domain (LBD) (Homo sapiens, UniProt P51449)
# Construct: made in house; host or cells: E. coli BL-21 (BL3), vector pDEST15
# Sequence (P51449 269-508 limits assumed): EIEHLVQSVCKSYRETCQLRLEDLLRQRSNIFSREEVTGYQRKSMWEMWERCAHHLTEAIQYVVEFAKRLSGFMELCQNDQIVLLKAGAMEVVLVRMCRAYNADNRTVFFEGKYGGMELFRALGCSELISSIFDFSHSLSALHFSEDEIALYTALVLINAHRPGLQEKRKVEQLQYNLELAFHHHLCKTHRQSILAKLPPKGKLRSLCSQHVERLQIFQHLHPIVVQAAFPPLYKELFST
# experiment_notes: TR-FRET Activity Assay (ligand sensing, RORγ-LBD / coactivator peptide interaction, LANCE)
# Assay type: biochemical
# particulars: first value of the cell FRET/FF/REN; TR-FRET activity assay; read-out: pIC50 (FRET) (converted)
Number in nM, nothing else.

Examples with their reported IC50 follow.
compound	IC50 / nM
Cc1c(C(=O)NCC(C)(C)O)cc(-c2cn(S(=O)(=O)N3CCCCC3)c3ccccc23)n1CC1CCCCC1 [9/2]	631
Cc1c(C(=O)NCCc2noc(=O)[nH]2)cc(-c2cc(C(C)(C)C)cc(C3(C)CC3)c2)n1CC1CCCCC1 [17/178]	794
Cc1c(C(=O)N[C@H]2C[C@H](C(=O)O)C2)cc(-c2ccc(S(=O)(=O)NCC(F)(F)F)c3ccccc23)n1CC1CCCCC1 [17/271]	794
Cc1c(C(=O)NC2CCOCC2)cc(-c2ccc(C(=O)NCC(F)(F)F)c(C(C)(C)C)c2)n1CC1CCCCC1 [6/2]	3160
Cc1c(C(=O)NC2CCOCC2)cc(-c2ccc(S(=O)(=O)NC(C)C)c(C(F)(F)F)c2)n1CC1CCCCC1 [17/112]	316
Cc1c(C(=O)N[C@H]2C[C@H](C(=O)O)C2)c(Cl)c(-c2cc(C(C)(C)C)cc(C3(C)CC3)c2)n1CC1CCCCC1 [Example 29]	3980
Cc1c(C(=O)NCC2(O)CCOCC2)cc(-c2cc(C(C)(C)C)cc(C3(C)CC3)c2)n1CC1CCCCC1 [17/64]	316
Cc1c(C(=O)NCCC(C)(C)C(=O)O)cc(-c2ccc(-c3ccnn3C(C)C)c(C(F)(F)F)c2)n1CC1CCCCC1 [17/250]	1580

IN: Return reported IC50; argument: Cc1c(C(=O)NC2CCOCC2)cc(-c2cc(C(C)(C)O)cc(C3(C)CC3)c2)n1CC1CCCCC1 [1/43]
OUT: 1000

IN: Return reported IC50; argument: Cc1c(C(=O)NC2CCC(C)(C(=O)O)CC2)cc(-c2ccc(S(=O)(=O)NC(C)(C)C)c(C(F)(F)F)c2)n1CC1CCCCC1 (stereo not shown) [17/259]
OUT: 1000

IN: Return reported IC50; argument: Cc1c(C(=O)NCC(C)(C)C(=O)O)cc(-c2ccc(S(=O)(=O)NC(C)(C)C)c(C(F)F)c2)n1CC1CCCCC1 [17/127]
OUT: 316

IN: Return reported IC50; argument: Cc1c(C(=O)NC2CCOCC2)cc(-c2ccc(S(=O)(=O)NC(C)(C)C)c(C#N)c2)n1CC1CCCCC1 [17/158]
OUT: 794

IN: Return reported IC50; argument: Cc1c(C(=O)N[C@H]2C[C@H](C(=O)O)C2)cc(-c2cc(C(=O)N[C@@H](C)C(F)(F)F)cc(C3(C)CC3)c2)n1CC1CCCCC1 [17/358]
OUT: 1000
